assay.summary: Stability of the compound in amorphous form assessed as compound remaining after 1 month at 60 mg/ml at 23 degC in presence of 0.1 equiv of NaHCO3
Assay type: physicochemical
details: read-out: Stability
assay.endpoint: remaining at 730.5 h, 60 mg/ml (%)

input.smiles: C[C@@H](O)[C@H]1C(=O)N2C(C(=O)O)=C(SCCN)C[C@H]12
value.measured: 80

###

assay.summary: Drug degradation in crystalline form at 10 mg/ml
Format: physicochemical
details: read-out: Drug degradation
assay.endpoint: degraded at 10 mg/ml

input.smiles: CC(=N)NCCSC1=C(C(=O)O)N2C(=O)[C@H]([C@@H](C)O)[C@H]2C1
value.measured: < 1%
